Just for reference, the supplement of paper PMC9170038 is where these values come from.

Please provide measured apparent KD of MS2 coat protein for the entries that follow.
System: MS2 coat protein
experiment: apparent KD of MS2 coat protein; designed switch direction (-1 OFF switch, 1 ON switch): -1; higher = weaker reporter binding
test.context: input ligand: none
The reply should contain only the number, in nM.

Exercise: Any idea what apparent KD of MS2 coat protein was measured for GUCGUGCGGCUUUGCUGUACGAGUACAUGAGGAUCACCCAUGUAGGAUAUGGUUCGCUUUGCGUGCCAGAAGGGCGUGCGUUGG [Excl-NG3-LRO12] (Eterna round: R96, puzzle: Exclusion NG 3) ?
Solution: 31.1

Exercise: Given the entry CCUCCACAUGAGGAUCACCCAUGUGAGGAUAUCCUGCGAGGAUCAAAAGAUCCUCGUGGGAGAAGGCACAUGAA [Omei Ex1 A9] (Eterna round: R97, puzzle: Exclusion 1) , report its measured apparent KD of MS2 coat protein.
Solution: 39.3

Exercise: Fill in the blank: the reported apparent KD of MS2 coat protein of UAUGUGUCAGGAUAUUAGUAGUAAAUAAAUAAAAUUAUUACUGAGAAGGGACAUGAGGAUCACCCAUGUGCCUU [Salish 062 v31] (Eterna round: R97, puzzle: Exclusion 4) is ____.
Solution: 12.3

Exercise: # lookup: apparent KD of MS2 coat protein of GGGUAAUUCGUGAGGAUAUCGCUAAGCACUUUGGCCGAGAAGGCACAUGAGGAUCACCCAUGUAAUACGGCACG [Eternabot (L1) Solution 92] (Eterna round: R97, puzzle: Brourd's mod of Exclusion 4)
Solution: 19.1

Exercise: Requested field: apparent KD of MS2 coat protein. Item: AUGCUCCGUGUAGGAUAUCGCCGUACUACUCGGCGAGAAGGACAUGAGGAUCACCCAUGUAUGUUAUUAUCACGUGUGGCGCGC [Design 49] (Eterna round: R96, puzzle: Exclusion NG 1)
Solution: 19.7

Exercise: Bench note: what apparent KD of MS2 coat protein did UAACGUGGCCUGAUCCUCCCUAACAUGAGGAUCACCCAUGUCUAGGAUAUCCGAACAAACAACGAGGAGAAGGAGACGAAACAU [Veleedan] (Eterna round: R96, puzzle: Exclusion NG 3) show?
Solution: 28.3

Exercise: Any idea what its apparent KD of MS2 coat protein is? The sequence is AGUACUAUCACGAAAGUGAUAGUACAAUGAGCUUUUGAAACAUGAGGAUCACCCAUGUCCUCGUAAGCUCGUCUUAA [Mat - Sensor v2 - var 2 - Mod - D179] (Eterna round: R96, puzzle: Sensor v2, turn-off variant 2)
Solution: 28.6

Exercise: Return reported apparent KD of MS2 coat protein; argument: AACAGUACAGGAUAUACAUGAGGAUCACCCAUGUGACAAUUAAGUGGCGUACCACAAAGUAGAAGGGUACUGGA [Ruby 86] (Eterna round: R96, puzzle: Exclusion 3)
Solution: 31
